measured attribute: glass transition temperature (°C)

Check out these entries, answers already filled in.
*Oc1cc2ccccc2cc1OC(=O)c1ccc(Oc2ccc(C(*)=O)cc2)cc1 (repeat unit)    148.00
*CC(*)(C)C(=O)OCCCCOc1ccc(C(=O)Oc2ccc(OC)cc2)cc1 (repeat unit)    45.00
*CCC1C(=O)N(CCCCCCCCCCCC)C(=O)C1* (repeat unit)    55.40
*CCCCCCCCCCC(=O)Nc1ccc(Oc2cccc(NC(=O)CCCCCCCCCCN3C(=O)c4ccc(C(=O)c5ccc6c(c5)C(=O)N(*)C6=O)cc4C3=O)c2)cc1 (repeat unit)    126.00

A. *Nc1cc(NC(=O)c2cc(OCCCS(=O)(=O)c3ccc(/N=N/c4ccc(N(C)C)cc4)cc3)cc(C(*)=O)c2)cc(C(=O)OCCCN(C)c2ccc(/N=N/c3ccc(S(C)(=O)=O)cc3)cc2)c1 (repeat unit)
B. *c1ccc(-c2sc(-c3cc(SCCCCCCCC)c(*)s3)cc2SCCCCCCCC)cc1 (repeat unit)
C. *CC(OCCCC)C(C)(C(=O)OC)C(*)(C)C(=O)OC (repeat unit)
Exam item: list the entries in increasing order of glass transition temperature. Give the labels in the order requested.
B, C, A
(B: 55.30 °C, C: 97.50 °C, A: 166.00 °C)

Each recorded value in this set is attributed to the PolyMetriX glass transition set.
